Test system: MDA-MB-435 melanoma
Test: NCI-60 one-dose screen, 48 h
Conditions: 10 µM unless noted
Experimental: Growth inhibition of the MDA-MB-435 human Melanoma tumor cell line is measured as a screen for anti-cancer activity. Cells are grown in 96 well plates and exposed to the test compound for 48 hours. Compounds are tested at a single concentration, which is 10^-5 M for most compounds. The reported endpoint is percent growth (GI% or GIPRCNT), where numbers from 0 - 100% represent growth inhibition, and numbers from -100% - 0 represent cell death. […]
The panel holds about 83,000 compounds, 20% with a hit somewhere; the sample as a whole holds those more often. Active and inactive are the calls of the source. The calls were made as follows: active = growth percent below 10; inactive = the rest.
Classes to choose from: y for active, n for inactive

Short answer needed: outcome of this test for `Cc1ccc2nc(NC(=O)CSC(=S)N3CCN(C)CC3)sc2c1` ?
n

And then `CCCN(CCC)c1ccc(/C=C/c2ccc3cc(OCC)ccc3n2)cc1` , what is it?
n

`CCOC(=O)c1c(Cl)c2c(n1Cc1ccc(OC)cc1)-c1oncc1CCC2` ?
n

Further, for COc1cc(C2CC(=O)Nc3c2ccc2ccccc32)cc(Br)c1OC (centres undefined) ?
y

Try the compound CC(C)(C)[Si](C)(C)OC1[C@@H](O[Si](C)(C)C(C)(C)C)[C@@H](CNC(=O)NC(=O)C(F)(F)F)O[C@H]1n1cnc2c(NC(=O)Nc3ccccc3)ncnc21 (some centres undefined)
y

Note, next up: `Cc1cc(NS(=O)(=O)c2ccc(NC(=O)COc3ccc(-c4cc5ccccc5[nH]4)cc3)cc2)no1`
y

What do you have for `Nc1nc(-c2ccnc(Cl)c2)nn1-c1nc2ccccc2s1` ?
n

Also, O=C1CCC(N2Cc3c(C#CCCCNC(=O)c4cc5c(o4)C(=O)c4ccccc4C5=O)cccc3C2=O)C(=O)N1 (centres undefined) please.
y

Please do the same for `CCN1CCN(c2ccc(Nc3ncc4ccc5ncn(C(C)C)c5c4n3)nc2)CC1` as well.
y

---

system: HOP-62 NSCLC; experiment: NCI-60 one-dose screen, 48 h; details: 10 µM unless noted
The panel holds about 83,000 compounds, 20% with a hit somewhere; the sample as a whole holds those more often. Active and inactive are the calls of the source. The calls were made as follows: active = growth percent below 10; inactive = the rest.
One label from this list, please: y = active, n = inactive

Dear all, I need the recorded test outcome for `CC(=O)Nc1ccc(Sc2ccc([N+](=O)[O-])o2)cc1` , thank you.
n

Now the compound N#CC1=C(N)Oc2cc(N)ccc2C1c1ccc(F)cc1 (stereo unspecified)
n

Try the compound COc1cccc(C2CC(=O)Nc3cc4c(cc32)OCO4)c1OC (stereo unspecified)
n

Try COc1cccc(C2C3=C(COC3=O)N(CCO)c3cc4c(cc32)OCO4)c1 (stereo unspecified) next.
n

And for `CN1CCN(C(=O)OCCOCCOC(=O)N2CCN(C)CC2)CC1` ?
n

Lookup `COc1cc2cc(Oc3ccc(NC(=O)Nc4ccc(Cl)c(C(F)(F)F)c4)cc3)c(C)nc2cc1OCCN1CCCCC1`
n

Another compound to check: `Cc1cc(NS(=O)(=O)c2ccc(NC(=O)COc3ccc(-c4cc5ccccc5[nH]4)cc3)cc2)no1`
y

Okay, and Cc1c(C)n(CC(O)CNC2CCCCC2C)c2ccccc12 (stereo unspecified) ?
y

// query: `O=C1N/C(=C\c2ccccc2)c2ncccc21`
n

Next up: `O=C(CCc1nnc2sc(/C=C\c3ccccc3)nn12)c1nc2ccccc2[nH]1`
n

Same for `CCCCCCCC/C=C\CCCCCCCCOc1cccc(CC(=O)NCC[N+]2(C)CCOCC2)c1`
n

How about `COC(=O)c1ccc(C(=O)Nc2ccccc2N)cc1` ?
n

Now consider Cc1ccc(S(=O)(=O)N2CCc3ccc(O)c4c3C2Cc2ccc3c(c2-4)OCO3)cc1 (stereo unspecified) and answer again.
n

Entry to check: `COc1ccc2c(c1)c(=O)oc1c(C)c(OCC(C)=O)ccc12`
n

Now the compound `O=C(N/N=C(\CS(=O)(=O)c1ccccc1)c1cc2cc(Br)ccc2oc1=O)c1ccccc1`
n

For `O=C(O)C[C@H](O)C[C@H](O)/C=C/c1c(C2CC2)nc2ccccc2c1-c1ccc(F)cc1` then?
n

Try this compound next: `Oc1cccc(Nc2nc(-c3ccccn3)cs2)c1`
n

Check `Clc1ccc(Nc2nc(Nc3ccccc3)nc(Nc3ccc(-c4cc(-c5ccc(Cl)cc5)on4)cc3)n2)cc1` too.
n

Same thing, different compound: `Cc1nn(-c2ccccc2)c2nc3nc4c(c(N)c3c(-c3ccc(Cl)cc3)c12)CCC4`
n

Next entry: `CN1CCN(CCCn2c3c(sc4ncccc43)c(=O)n3nnc(-c4ccccc4)c23)CC1`
y

Would you kindly repeat that for `CN1CCc2c(c3ccccc3c3ccccc23)C1` ?
n

---

system: SF-295 CNS; assay: NCI-60 one-dose screen, 48 h (100 = growth as untreated, 0 = no growth, -100 = all killed); conditions: 10 µM unless noted
This is part of a sample that, as a whole, favours compounds with a hit. Of some 83,000 tested, about 20% had one in any assay.
property_name: growth (%)
Reply numerically in %, unit not repeated.

Need growth, item `Fc1c[c-]c(-c2ccccn2)c(F)c1.Fc1c[c-]c(-c2ccccn2)c(F)c1.[Cl][Pt+].[Cl][Pt+].c1ccc([PH+](C[PH+](c2ccccc2)c2ccccc2)c2ccccc2)cc1`
17.3

Now try `COc1cc(C(F)(F)F)ccc1-c1cc(-c2ccc(F)cc2)n[nH]1` .
97.6

Likewise for `COc1nc2c(cc1S(=O)(=O)c1ccccc1)CCc1c-2cnn1-c1ccccc1Cl` ?
63

Repeat with `O=c1oc2ccccc2cc1-c1csc(N=Nc2c(O)[nH]c3ccc(Cl)cc23)n1`
98.6

---

system: U251 CNS; assay: NCI-60 one-dose screen, 48 h (100 = growth as untreated, 0 = no growth, -100 = all killed); details: 10 µM unless noted
Compounds without any hit were thinned out: in the full panel of roughly 83,000, 20% have a hit. Calls of active or inactive are those of the source. Rule for the calls: active = growth percent below 10; inactive = the rest.
property_name: growth

Which growth is reported for this compound? `O=c1[nH]c(-c2ccccn2)nc2sc3c(c12)CCCCCC3`
22.5% (inactive)

Then what about the compound `O=C(N/N=C/c1ccc(F)cc1)c1[nH]c2ccc(I)cc2c1-c1ccccc1` ?
20.4% (inactive)

Same for `CCOC(=O)c1c(Cl)c2c(n1Cc1ccc(OC)cc1)-c1oncc1CCC2`
89.3% (inactive)

How about O=C(NCc1ccc(F)cc1)C1CN(c2ccc(Cl)cc2)N(c2ccc(Cl)cc2)C1=O (stereo not given) ?
56.6% (inactive)

Now consider `Cc1ccccc1-n1nnc(C(=O)Nc2ccc(-c3ccccc3)cn2)c1C` .
64.9% [50 µM] (inactive)

---

tested on: HCT-116 colon; assay: NCI-60 one-dose screen, 48 h (100 = growth as untreated, 0 = no growth, -100 = all killed); conditions: 10 µM unless noted
Compounds without any hit were thinned out: in the full panel of roughly 83,000, 20% have a hit.
Response key: Condition met means growth >= 80%; Condition not met means growth < 80%.

Does the reported growth for `Clc1ccc2c(N3CCN(c4ccnc(NC5CCCCC5)n4)CC3)ccnc2c1` fall at or above the 80% mark?
Condition not met

Now the molecule C[C@@H](Oc1cc(-c2cnn(C3CC4(CCCNC4)C3)c2)cnc1N)c1c(Cl)ccc(F)c1Cl (stereo not given in full)
Condition not met

Let us now turn to `Cc1cc(=O)c2c(C)ccc(C)c2[nH]1`
Condition met

Next: O=C1CC2c3cc(-c4cc5ccccc5o4)ccc3CCN2C(=O)N1c1ccccc1 (stereo not given)
Condition not met

Same thing, different molecule: `Cl.Fc1c[c-]c(-c2ccccn2)c(F)c1.[Pt].c1ccc([PH+](CC[PH+](c2ccccc2)c2ccccc2)c2ccccc2)cc1`
Condition not met

And CC(C)(C)[Si](C)(C)OC1[C@@H](CNC(=O)NC(=O)CCl)O[C@@H](n2cnc3c(N)ncnc32)[C@H]1O[Si](C)(C)C(C)(C)C (stereo not given in full) ?
Condition not met

How about this molecule: `Cn1c2ccccc2c2nn(C(=O)c3ccccc3)c(=O)nc21`
Condition met

Entry to check: `COc1ccc(-c2c(-c3cc4c(c(OC)c3OC)OCO4)noc2N)cc1`
Condition not met

Do the same for `Nc1nc(-c2ccnc(Cl)c2)nn1-c1nc2ccccc2s1` please
Condition met

`COC(=O)c1c2c(c(C)[n+]([O-])c1C)C(=O)C=C(NCc1ccc(F)cc1)C2=O` , same question.
Condition not met

---

test system: SK-OV-3 ovarian; assay: NCI-60 one-dose screen, 48 h (100 = growth as untreated, 0 = no growth, -100 = all killed); conditions: 10 µM
The panel holds about 83,000 compounds, 20% with a hit somewhere; the sample as a whole holds those more often.
Kindly state growth for each of the entries shown.
Please state the figure in %; there is no need to write the unit.

Could you share which growth value was measured for `O=c1[nH]c(-c2ccncc2)nc2sc3c(c12)CCCCCC3` ?
31.5

Check `COc1cc(/C=C/C(=O)C(=Cc2ccc(F)c(F)c2)C(=O)/C=C/c2ccc(O)c(OC)c2)ccc1O` too.
94.4

What about this compound? `O=c1[nH]c(=S)[nH]c(=O)n1Cc1cccc2ccccc12`
102

Another compound to check: CCC12CCC3c4ccc(O)cc4CCC3C1CC(O)C2O (stereo not drawn)
98.7

Field entry: CCC(C)[C@H]1O[C@]2(CC[C@@H]1C)C[C@@H]1C[C@@H](C/C=C(\C)[C@@H](OC3C[C@H](OC)C(O[C@H]4C[C@H](OC)[C@@H](O)[C@H](C)O4)[C@H](C)O3)[C@@H](C)/C=C/C=C3\CO[C@@H]4[C@H](O)C(C)=C[C@@H](C(=O)O1)[C@]34O)O2 (stereo partly drawn)
50.8

# repeat for `Cn1c2c(cc(S(=O)(=O)c3ccccc3)c1=O)CCc1c-2cnn1-c1ccccc1Cl`
88.7

// query: CC1SC(c2cccc(Oc3ccccc3)c2)N(CCc2cccs2)C1=O (stereo not drawn)
-8.94

Also `Nc1nc(N)c(N=Nc2c(Br)cc(S(N)(=O)=O)cc2Br)c(N)n1` , if possible.
108
